// provenance: paper PMC11050087

Tested on: HSV-1
Assay: Virucidal activity, RT-PCR assay (HSV-1 pretreated with compounds)
Type: cell-based, HSV-1 strain L2
Conditions: 0.1 µg/mL; 72 h
measurement_type: Ct

• Oc1cc(O)cc(/C=C/c2ccc3c(c2)O[C@H](c2cc(O)cc(O)c2)[C@@H](c2ccc(O)c(O)c2)O3)c1 = 18.6 ± 2.4
• Oc1cc(O)cc(/C=C/c2ccc(O)c(O)c2)c1 = 18.4 ± 2.4
• COc1ccc([C@H]2COc3cc(O)ccc3[C@@H]2c2c(O)cc(O)cc2/C=C/c2ccc(O)c(O)c2)c(O)c1 = 18.4 ± 2.4
• Oc1ccc(/C=C/c2cc(O)cc(O)c2)cc1 = 18.1 ± 2.2
• COc1ccc(-c2coc3c4c(ccc3c2=O)O[C@@H](c2cc(O)cc(O)c2)[C@H](c2ccc(O)c(O)c2)O4)cc1 = 18.4 ± 2.4
• O=c1c(-c2ccc(O)cc2)coc2cc(O)cc(O)c12 = 18.1 ± 2.2
• Oc1ccc2c(c1)OC[C@H]1c3cc4c(cc3O[C@@H]21)OCO4 = 18.1 ± 2.2
• Oc1ccc(/C=C/c2cc(O)cc3c2[C@H](c2cc(O)cc(O)c2)[C@@H](c2ccc(O)c(O)c2)O3)cc1 = 18.6 ± 2.4

----------
This section presents compounds with their documented activity at 1 µg/mL values.
Test system: HSV-1
Test: Virucidal activity, RT-PCR assay (HSV-1 pretreated with compounds)
Assay type: cell-based, HSV-1 strain L2
Settings: Human alphaherpesvirus 1, 72 h, read-out: 2^−ΔCt
measurement_type: activity at 1 µg/mL (%)

• COc1ccc(-c2coc3c4c(ccc3c2=O)O[C@@H](c2cc(O)cc(O)c2)[C@H](c2ccc(O)c(O)c2)O4)cc1 = 23.3
• Oc1ccc2c(c1)OC[C@H]1c3cc4c(cc3O[C@@H]21)OCO4 = 53.6
• Oc1cc(O)cc(/C=C/c2ccc(O)c(O)c2)c1 = 1.18
• Oc1ccc(/C=C/c2cc(O)cc3c2[C@H](c2cc(O)cc(O)c2)[C@@H](c2ccc(O)c(O)c2)O3)cc1 = 0.481

----------
The entries below are paired with their reported −ΔCt.
Test system: HSV-1
Assay: Virucidal activity, RT-PCR assay (HSV-1 pretreated with compounds)
Assay type: cell-based, HSV-1 strain L2
Conditions: 0.1 µg/mL; vs virus control
measurement_type: −ΔCt

- Oc1ccc(/C=C/c2cc(O)cc3c2[C@H](c2cc(O)cc(O)c2)[C@@H](c2ccc(O)c(O)c2)O3)cc1: −0.50
- Oc1cc(O)cc(/C=C/c2ccc3c(c2)O[C@H](c2cc(O)cc(O)c2)[C@@H](c2ccc(O)c(O)c2)O3)c1: −0.50
- COc1ccc(-c2coc3c4c(ccc3c2=O)O[C@@H](c2cc(O)cc(O)c2)[C@H](c2ccc(O)c(O)c2)O4)cc1: −0.300
- Oc1cc(O)cc(/C=C/c2ccc(O)c(O)c2)c1: −0.30
- COc1ccc([C@H]2COc3cc(O)ccc3[C@@H]2c2c(O)cc(O)cc2/C=C/c2ccc(O)c(O)c2)c(O)c1: −0.30
- Oc1ccc(/C=C/c2cc(O)cc(O)c2)cc1: 0
- O=c1c(-c2ccc(O)cc2)coc2cc(O)cc(O)c12: 0
- Oc1ccc2c(c1)OC[C@H]1c3cc4c(cc3O[C@@H]21)OCO4: 0

----------
System: HSV-1
Assay: Virucidal activity, CPE inhibition assay (HSV-1 pretreated with compounds)
Assay type: cell-based, HSV-1 strain L2
Details: ratio of CC50 to IC50; virucidal scheme
measurement_type: SI

* COc1ccc(-c2coc3c4c(ccc3c2=O)O[C@@H](c2cc(O)cc(O)c2)[C@H](c2ccc(O)c(O)c2)O4)cc1 | 23.7
* COc1ccc([C@H]2COc3cc(O)ccc3[C@@H]2c2c(O)cc(O)cc2/C=C/c2ccc(O)c(O)c2)c(O)c1 | 18.9
* Oc1ccc(/C=C/c2cc(O)cc(O)c2)cc1 | 12.8
* Oc1cc(O)cc(/C=C/c2ccc(O)c(O)c2)c1 | 37.3

----------
Below, each entry is listed with its recorded activity at 1 µg/mL.
Test system: HSV-1
Experiment: Virucidal activity, RT-PCR assay (HSV-1 pretreated with compounds)
Format: cell-based, HSV-1 strain L2
Conditions: Human alphaherpesvirus 1, 72 h, read-out: 2^−ΔCt
Description: Vero cells grown on 96-well plates were infected with the virus (100 TCID50/mL), pretreated with polyphenolic compounds at concentrations 0.1, 1 and 10 μg/mL. After 72 h of cell incubation, viral DNA was extracted from the supernatants, and the relative level of HSV-1 DNA was determined using RT-PCR. The effect of polyphenols on the relative level of viral DNA was assessed using the 2^−∆Ct method and reported as fold reduction compared to virus control. […]
measurement_type: activity at 1 µg/mL (%)

• Oc1ccc(/C=C/c2cc(O)cc(O)c2)cc1 [Compound 1, resveratrol] = 20.3
• COc1ccc([C@H]2COc3cc(O)ccc3[C@@H]2c2c(O)cc(O)cc2/C=C/c2ccc(O)c(O)c2)c(O)c1 [Compound 14, maackiapicevestitol] = 46.6
• O=c1c(-c2ccc(O)cc2)coc2cc(O)cc(O)c12 [Compound 2, genistein] = 81.2
• Oc1cc(O)cc(/C=C/c2ccc3c(c2)O[C@H](c2cc(O)cc(O)c2)[C@@H](c2ccc(O)c(O)c2)O3)c1 [Compound 9, maackin] = 0.449
